# growth per entry
system: SNB-19 CNS; assay: NCI-60 one-dose screen, 48 h (100 = growth as untreated, 0 = no growth, -100 = all killed); details: 10 µM unless noted
This is part of a sample that, as a whole, favours compounds with a hit. Of some 83,000 tested, about 20% had one in any assay.
Form entry: value (%) — number only.

Sample records with growth:
Query: I am curious: what growth value has been reported for CN1CCCN(C(c2ccccc2)c2ccc(Cl)cc2)CC1 (stereo not drawn) ?
Response: 117

Query: I am curious: what growth value has been reported for Cc1ccc(C)c(CN(C)C)c1O ?
Response: 122

Query: I am curious: what growth value has been reported for CSc1nsc(N)n1 ?
Response: 96

Query: I am curious: what growth value has been reported for O=C(NC(=S)N1CC=CCC1)c1ccccc1 ?
Response: 105

Query: I am curious: what growth value has been reported for CCOC(=O)N[C@H]1CCc2cc(OC)c(OC)c(OC)c2-c2ccc(SC)c(=O)cc21 ?
Response: 30.8

Query: I am curious: what growth value has been reported for Cc1ccc([N+](=O)[O-])c(C)n1 ?
Response: 105

Query: I am curious: what growth value has been reported for CCCc1cccc(CCC)c1NC(=O)Nc1cc(Cl)cc(Cl)c1 ?
Response: 99.5

Query: I am curious: what growth value has been reported for COC1OC(C(COC(C)=O)OC(C)=O)C(OC(C)=O)C(OC(C)=O)C1OC(C)=O (stereo not drawn) ?
Response: 99.4

Query: I am curious: what growth value has been reported for CCCOCc1cn[nH]n1 ?
Response: 115

Query: I am curious: what growth value has been reported for CCOC(=O)c1ccc(NC(=O)Nc2nccs2)cc1 ?
Response: 11.6

New cases:
Query: I am curious: what growth value has been reported for COc1cc(C(=O)NC(=S)NCc2ccncc2)cc(OC)c1OC ?
Response: 106

Query: I am curious: what growth value has been reported for Cc1cccc(-[n+]2noc(N)n2)c1 ?
Response: 81.4

Query: I am curious: what growth value has been reported for C=CC(C)(C)n1cc(C2=C(O)C(=O)C(c3cn(C(C)(C)C=C)c4ccccc34)=C(O)C2=O)c2ccccc21 ?
Response: 80.2

---

system: OVCAR-3 ovarian; assay: NCI-60 one-dose screen, 48 h (100 = growth as untreated, 0 = no growth, -100 = all killed); settings: 10 µM unless noted
Compounds without any hit were thinned out: in the full panel of roughly 83,000, 20% have a hit.
# growth per entry
Form entry: value (%) — number only.

Query: I am curious: what growth value has been reported for CC(C)c1ccccc1NC(=O)N1CCC(C(C)C)CC1 ?
Response: 113

Query: I am curious: what growth value has been reported for NC(CO)(CO)c1ccccc1 ?
Response: 97.5

Query: I am curious: what growth value has been reported for O=[N+]([O-])c1ccc(-c2nc(N(CCO)CCO)c3ccccc3n2)o1 ?
Response: -34.3

Query: I am curious: what growth value has been reported for N#C/C(=C\NC(=S)N=Nc1c(O)[nH]c2ccccc12)c1nc2ccccc2s1 ?
Response: 103

Query: I am curious: what growth value has been reported for C1C[S+]2CC[S+]1CC2 ?
Response: 102

New cases:
Query: I am curious: what growth value has been reported for CC(C)N1CC(=O)N2CSCC2C1=O (stereo not drawn) ?
Response: 104
